System: Fibroblast
Experiment: Multiplex assay against human fibroblast
Format: toxicity, cell-based
Conditions: 12 h, 10 µM, compound concentration 10 uM, replicate 1
Think of 10% as a floor: if Population Membrane Permeable-Phenotype (%) stands on it or above, it is true; beneath it, false.

Recorded results for 3 compounds are shown here.
# compound, measurement_target, label_class
records = [
    ("CC(Cc1ccc(O)c(O)c1)C(C)Cc1ccc(O)c(O)c1 (stereo not given) [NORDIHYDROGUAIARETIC ACID]", "Fibroblast", "true"),
    ("CC[C@H](Nc1ncnc2[nH]cnc12)c1nc2cccc(F)c2c(=O)n1-c1ccccc1 [IDELALISIB]", "Fibroblast", "true"),
    ("N#CCNC(=O)c1ccc(-c2ccnc(Nc3ccc(N4CCOCC4)cc3)n2)cc1 [MOMELOTINIB]", "Fibroblast", "true"),
]

(Q) Confirm if Population Membrane Permeable-Phenotype (%) reported for the compound COc1ccccc1-c1cc(Nc2cccc(CS(N)(=O)=O)c2)ncn1 is 10% or above.
(A) false

* * *

System: U2OS
Experiment: Multiplex assay against U2OS
Type: toxicity, cell-based
Settings: human, 24 h, 10 µM, compound concentration 10 uM, replicate 1
measurement_label: Population Fragmented Nuclei (%)
Note: unit % is implicit; provide only the numeric part.

# compound, numeric_readout
measured = [
    ("C=CC(=O)Nc1cc(-n2c(=O)ccc3cnc4ccc(-c5ccc(NS(C)(=O)=O)cc5)cc4c32)ccc1C", 17),
]

(Q) Give the reported Population Fragmented Nuclei (%) for this compound. CN(c1cc(C(F)(F)F)nc(OCCC(=O)O)n1)c1cccc2c1CCC2
(A) 8

(Q) Give the reported Population Fragmented Nuclei (%) for this compound. CC[C@H](Nc1ncnc2[nH]cnc12)c1nc2cccc(F)c2c(=O)n1-c1ccccc1
(A) 3

* * *

Test system: U2OS
Assay: Multiplex assay against U2OS
Format: toxicity, cell-based
Details: human, 24 h, 10 µM, compound concentration 10 uM, replicate 1
measurement_label: Population Hoechst High Intensity Objects (%)
Note: unit % is implicit; provide only the numeric part.

Here's what some known entries look like.
# mol_smiles, numeric_readout
records = [
    ("Cc1c(P(=S)(c2ccccc2)c2ccccc2)n2ccccc2[n+]1C/C=C/c1ccccc1.[Br-]", 14),
    ("N#CCNC(=O)c1ccc(-c2ccnc(Nc3ccc(N4CCOCC4)cc3)n2)cc1", 8),
    ("Oc1cccc(-c2nc(N3CCOCC3)c3oc4ncccc4c3n2)c1", 10),
    ("CC(C)[C@H](CO)Nc1nc(Nc2cccc(Cl)c2)c2ncn(C(C)C)c2n1", 16),
    ("N#Cc1cccc(C(=O)Nc2cc(-c3ccccc3)nn2-c2ccccc2)c1", 8),
]

(Q) Give the reported Population Hoechst High Intensity Objects (%) for this molecule. Cc1ccc(NC(=O)Nc2cc(C(F)(F)F)ccc2F)cc1Nc1ccc2c(c1)NC(=O)/C2=C\c1ccc[nH]1
(A) 1

* * *

Quick list: Population Tubulin-Different-Phenotype (%) per entry.
Test system: Fibroblast
Assay: Multiplex assay against human fibroblast
Assay type: toxicity, cell-based
Settings: 12 h, 10 µM, compound concentration 10 uM, replicate 2

# molecule, result
rows = [
    ("CS(=O)(=O)N1CCCC(NC(=O)[C@H](CCC2CCCCC2)NC(=O)c2ccc(CNC(=O)c3cnc4ccccn34)cc2)C1 (some centres not stated)", "91% [middle of 4 runs]"),
    ("CCCCCNC(=N)N/N=C/c1c[nH]c2ccc(OC)cc12.O=C(O)/C=C\\C(=O)O [TEGASEROD MALEATE]", "100%"),
    ("CC(/C=C1\\SC(=S)N(CCCC(=O)Nc2ccc(C(=O)O)c(O)c2)C1=O)=C\\c1ccccc1", "9%"),
]

(Q) Give the reported Population Tubulin-Different-Phenotype (%) for this molecule. Oc1cccc(-c2nc(N3CCOCC3)c3oc4ncccc4c3n2)c1
(A) 83%

(Q) Give the reported Population Tubulin-Different-Phenotype (%) for this molecule. Cc1ccc(NC(=O)Nc2cc(C(F)(F)F)ccc2F)cc1Nc1ccc2c(c1)NC(=O)/C2=C\c1ccc[nH]1
(A) 0%

(Q) Give the reported Population Tubulin-Different-Phenotype (%) for this molecule. N#CCNC(=O)c1ccc(-c2ccnc(Nc3ccc(N4CCOCC4)cc3)n2)cc1
(A) 6%

(Q) Give the reported Population Tubulin-Different-Phenotype (%) for this molecule. Cc1c(Nc2ccc(S(=O)(=O)N3CCN(C)CC3)cc2F)nc2ccc(Nc3cnn(C4CC4)c3)cn2c1=O
(A) 19%

(Q) Give the reported Population Tubulin-Different-Phenotype (%) for this molecule. CN1C(=O)[C@@H](NC(=O)c2cc3ccccc3[nH]2)N=C(c2ccccc2)c2ccccc21 [DEVAZEPIDE]
(A) 66%

(Q) Give the reported Population Tubulin-Different-Phenotype (%) for this molecule. CCCc1cc(C)[nH]c(=O)c1CNC(=O)c1cc(-c2ccc(N3CCN(C(C)C)CC3)nc2)cc2c1cnn2C(C)C
(A) 100%

(Q) Give the reported Population Tubulin-Different-Phenotype (%) for this molecule. CCOc1ccn(-c2ccc(F)cc2)c(=O)c1C(=O)Nc1ccc(Oc2ccnc(N)c2Cl)c(F)c1
(A) 0%

(Q) Give the reported Population Tubulin-Different-Phenotype (%) for this molecule. CCCCN(CC)c1nc(C)nc2c1c(C)cn2-c1c(C)cc(C)cc1C.Cl
(A) 19%

(Q) Give the reported Population Tubulin-Different-Phenotype (%) for this molecule. CC(C)c1cc(Nc2nc(N3CCC[C@H](N)C3)ncc2C(N)=O)cc(C(C)C)n1
(A) 100%

Hey, just so you know, these numbers are from ChEMBL document CHEMBL4689842.
